- System: SNB-75
- Assay Remarks: NCI tumour cell line growth inhibition, 48 h
The source made the active and inactive calls. Rule as the data show it: active = GI50 up to about 1.1 µM and inactive = higher.
Quantity: GI50

As a guide, the following entries are already answered.
# Compound, GI50
measured = [
    ("COC1(OC)C2(Cl)CCC1(Cl)C(OC(C)=O)C2 (stereo not drawn)", "> 100 µM (inactive)"),
    ("COC(=O)C1Cc2ccc3c(c2C1=O)CCCC3 (stereo not drawn)", "89.7 µM (inactive)"),
]

Now look at this entry.
Prompt line: Form: Entry = CC(C)(C)C(=O)OCC1C(=O)OCC1C(=O)N1Cc2cc3ccccc3nc2C1 (stereo not drawn) | System = SNB-75 | GI50 = ____
Response line: 7.74 µM (inactive)

Every entry's value here was drawn from ChEMBL document CHEMBL1201862.
